# target_under_test: 5-hydroxytryptamine receptor 1B (Rattus norvegicus)
# Sequence (P28564 whole entry): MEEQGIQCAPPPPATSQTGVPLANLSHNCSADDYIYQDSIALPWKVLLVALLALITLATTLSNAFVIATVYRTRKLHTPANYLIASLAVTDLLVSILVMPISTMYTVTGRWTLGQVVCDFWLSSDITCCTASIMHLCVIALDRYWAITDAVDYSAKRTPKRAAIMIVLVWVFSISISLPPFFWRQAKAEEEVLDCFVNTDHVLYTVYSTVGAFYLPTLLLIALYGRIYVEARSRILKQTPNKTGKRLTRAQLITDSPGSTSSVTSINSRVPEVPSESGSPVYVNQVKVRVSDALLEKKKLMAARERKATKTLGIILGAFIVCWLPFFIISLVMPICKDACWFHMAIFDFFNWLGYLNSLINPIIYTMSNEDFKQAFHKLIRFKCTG
# Format: cell membranes, Wistar, Cerebral cortex, Membrane
# condition_details: read-out: Ki
quantity_name: Ki (nM)
Answers are plain numbers, in nM.

{"compound": "CCCCc1oc2ccccc2c1C(=O)c1cc(I)c(OCCN(CC)CC)c(I)c1", "Ki [nM]": 39200}

Kindly give each listed record's Ki.
1. CC(C)[C@H]1C(=O)N2CCC[C@H]2[C@]2(O)O[C@](NC(=O)[C@@H]3C=C4c5cccc6[nH]cc(c56)C[C@H]4N(C)C3)(C(C)C)C(=O)N12
2. CC[C@@H](CO)NC(=O)[C@@H]1C=C2c3cccc4[nH]cc(c34)C[C@H]2N(C)C1
3. CN1CCN(CCCN2c3ccccc3Sc3ccc(Cl)cc32)CC1
4. CC(C)N1CCN(c2ccc(OCC3COC(Cn4cncn4)(c4ccc(Cl)cc4Cl)O3)cc2)CC1 (stereo not drawn)
5. CC(C)[C@@]1(NC(=O)[C@@H]2C[C@@H]3c4cccc5[nH]cc(c45)C[C@H]3N(C)C2)O[C@@]2(O)[C@@H]3CCCN3C(=O)[C@H](Cc3ccccc3)N2C1=O.CS(=O)(=O)O [DIHYDROERGOCRISTINE MESYLATE]
6. CCCN1C[C@H](CSC)C[C@@H]2c3cccc4[nH]cc(c34)C[C@H]21 [PERGOLIDE]
7. CN(C)CCCN1c2ccccc2Sc2ccc(Cl)cc21

stdout:
19
9.26
1200
40900
11
40
1840
